# ASSAYED_SYSTEM: active p38 alpha enzyme (Upstate Biotechnology) (Homo sapiens, UniProt Q16539)
# Construct: purchased Upstate Biotechnology
# Sequence (Q16539 whole entry): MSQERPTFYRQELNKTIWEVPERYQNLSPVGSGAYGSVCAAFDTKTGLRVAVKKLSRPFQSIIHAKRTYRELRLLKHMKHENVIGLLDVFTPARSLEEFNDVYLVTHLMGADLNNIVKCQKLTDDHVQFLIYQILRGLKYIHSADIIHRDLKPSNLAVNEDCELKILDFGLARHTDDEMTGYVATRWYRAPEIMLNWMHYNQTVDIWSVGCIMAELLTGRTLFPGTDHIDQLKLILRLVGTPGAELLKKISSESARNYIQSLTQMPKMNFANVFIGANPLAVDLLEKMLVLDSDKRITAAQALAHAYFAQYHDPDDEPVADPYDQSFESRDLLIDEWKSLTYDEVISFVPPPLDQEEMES
# ASSAY_METHOD_TEXT: p38α biochemical assay (ATP turnover, luminescent detection, Cambrex PKlight)
# EXPERIMENTAL_CONTEXT: p38α biochemical assay, Table 1 Biological Activity
PROPERTY_MEASURED: IC50

Please review the following examples before continuing.
CC(=O)NCC(=O)NCc1onc(-c2ccc(F)cc2)c1-c1nc(C(=O)NC(C)C)cs1 | > 1 µM
CC(C)NC(=O)c1csc(-c2c(-c3ccc(F)cc3)noc2CNC(=O)c2cc(Cl)ccc2[N+](=O)[O-])n1 | > 1 µM
CC(C)NC(=O)c1csc(-c2oc(CNC(=O)Cc3ccc4c(c3)OCO4)nc2-c2ccc(F)cc2)n1 | > 1 µM
CCCCCc1ccc(C(=O)N2CCN(Cc3nc(-c4ccc(F)cc4)c(-c4nc(C(=O)NC(C)C)cs4)o3)CC2)cc1 | > 1 µM
Cc1ccc(C(=O)NCc2onc(-c3ccc(F)cc3)c2-c2nc(C(=O)NC(C)C)cs2)cc1C | > 1 µM
Cc1cccc(C(=O)NCc2nc(-c3ccc(F)cc3)c(-c3nc(C(=O)NC(C)C)cs3)o2)c1C | > 1 µM
COc1cc(OC)c(C(=O)NCc2onc(-c3ccc(F)cc3)c2-c2nc(C(=O)NC(C)C)cs2)c(OC)c1 | > 1 µM
CC(C)NC(=O)c1csc(-c2oc(CN3CCN(C(=O)c4ccc(Oc5ccccc5)cc4)CC3)nc2-c2ccc(F)cc2)n1 | ≤ 1 µM
Cc1ccc([N+](=O)[O-])c(C(=O)NCc2nc(-c3ccc(F)cc3)c(-c3nc(C(=O)NC(C)C)cs3)o2)c1 | ≤ 1 µM
CC(C)NC(=O)c1csc(-c2c(-c3ccc(F)cc3)noc2CNC(=O)c2cccc3ccccc23)n1 | ≤ 1 µM

Challenge: Give the measured IC50 for `CC(C)NC(=O)c1csc(-c2oc(CN3CCN(C(=O)c4ccccn4)CC3)nc2-c2ccc(F)cc2)n1`
Response given: > 1 µM

Challenge: Look up and report measured IC50 for this entry: `CC(C)NC(=O)c1csc(-c2c(-c3ccc(F)cc3)noc2CNC(=O)c2ccccc2[N+](=O)[O-])n1`
Response given: > 1 µM

Challenge: Tell me measured IC50 for `CC(C)NC(=O)c1csc(-c2oc(CNC(=O)c3cccc(O)c3)nc2-c2ccc(F)cc2)n1` please.
Response given: ≤ 1 µM

----------
# ASSAYED_SYSTEM: active p38 alpha enzyme (Upstate Biotechnology) (Homo sapiens)
# Construct: purchased Upstate Biotechnology
# ASSAY_METHOD_TEXT: p38α biochemical assay (ATP turnover, luminescent detection, Cambrex PKlight)
# EXPERIMENTAL_CONTEXT: p38α biochemical assay, Table 1 Biological Activity
pIC50: −log10 of the molar value.
Property: pIC50; scope: individual molecules

CC(C)NC(=O)c1csc(-c2oc(CN3CCN(C(=O)C4CCc5ccccc5C4)CC3)nc2-c2ccc(F)cc2)n1 (stereo not shown) [Example 441] | ≥ 6.00

Challenge: Determine from records and report pIC50 for CC(C)NC(=O)c1csc(-c2oc(CN3CCN(C(=O)/C=C/c4ccccc4O)CC3)nc2-c2ccc(F)cc2)n1 [Example 403]
Response given: ≥ 6.00

Challenge: State its pIC50: CC(C)NC(=O)c1csc(-c2oc(CN3CCN(C(=O)c4c5ccccc5cc5ccccc45)CC3)nc2-c2ccc(F)cc2)n1 [Example 540]
Response given: < 6.00

Challenge: For the molecule Cc1ccc(C(=O)NCc2nc(-c3ccc(F)cc3)c(-c3nc(C(=O)NC(C)C)cs3)o2)cc1C [Example 139] , give its measured pIC50 value.
Response given: < 6.00

Challenge: Identify measured pIC50 corresponding to CC(C)NC(=O)c1csc(-c2oc(CN3CCN(C(=O)C4CC(O)CN4C(=O)OC(C)(C)C)CC3)nc2-c2ccc(F)cc2)n1 (stereo not shown) [Example 554]
Response given: < 6.00

Challenge: Item CC(C)NC(=O)c1csc(-c2oc(CNC(=O)c3ccccc3C(=O)c3ccc(F)cc3)nc2-c2ccc(F)cc2)n1 [Example 323] : provide pIC50
Response given: < 6.00

Challenge: Hello, please tell me recorded pIC50 for this one: CC(C)NC(=O)c1csc(-c2c(-c3ccc(F)cc3)noc2CNC(=O)c2cc(F)cc(F)c2)n1 [Example 635]
Response given: < 6.00

Challenge: Item CC(C)NC(=O)c1csc(-c2c(-c3ccc(F)cc3)noc2CNC(=O)/C=C/c2cccc(O)c2)n1 [Example 643] : provide pIC50
Response given: < 6.00

Challenge: # return recorded pIC50 for input CC(C)NC(=O)c1csc(-c2oc(CN3CCN(C(=O)c4cc(O)ccc4O)CC3)nc2-c2ccc(F)cc2)n1 [Example 383]
Response given: ≥ 6.00

Challenge: Quick one: give measured pIC50 for COc1ccc(C(=O)N2CCN(Cc3nc(-c4ccc(F)cc4)c(-c4nc(C(=O)NC(C)C)cs4)o3)CC2)c(OC)c1OC [Example 523]
Response given: ≥ 6.00

----------
# ASSAYED_SYSTEM: active p38 alpha enzyme (Upstate Biotechnology) (Homo sapiens, UniProt Q16539)
# Construct: purchased Upstate Biotechnology
# ASSAY_METHOD_TEXT: p38α biochemical assay (ATP turnover, luminescent detection, Cambrex PKlight)
# EXPERIMENTAL_CONTEXT: p38α kinase; Table 1 Biological Activity
PROPERTY_MEASURED: IC50

Please review the entries below; each comes with its answer.
COCCNCc1nc(-c2ccc(F)cc2)c(-c2nc(C(=O)NC(C)C)cs2)o1 | ≤ 1000 nM
CC(C)NC(=O)c1csc(-c2oc(CN3CCN(CCc4ccccc4)CC3)nc2-c2ccc(F)cc2)n1 | > 1000 nM
Cc1nc(-c2ccc(F)cc2)c(-c2nc(C(=O)N3CC(C)OC(C)C3)cs2)s1 (stereo not drawn) | > 1000 nM
CC(C)NC(=O)c1csc(-c2oc(CN(C)Cc3cccc4ccccc34)nc2-c2ccc(F)cc2)n1 | > 1000 nM
CC(=O)c1ccccc1C(=O)N1CCC(c2[nH]nc(-c3ccc(F)cc3)c2-c2nc(C(=O)NC(C)C)cs2)CC1 | > 1000 nM
CC(C)NC(=O)c1csc(-c2c(-c3ccc(F)cc3)noc2CN2CCN(c3ccccn3)CC2)n1 | > 1000 nM
CNCc1onc(-c2ccc(F)cc2)c1-c1nc(C(=O)NC(C)C)cs1 | > 1000 nM
CCCc1ccc(C(=O)N2CCC(c3[nH]nc(-c4ccc(F)cc4)c3-c3nc(C(=O)NC(C)C)cs3)CC2)cc1 | > 1000 nM
CCOC(=O)CC(C)NC(=O)c1csc(-c2sc(C)nc2-c2ccc(F)cc2)n1 (stereo not drawn) | ≤ 1000 nM
Cc1[nH]nc(-c2ccc(F)cc2)c1-c1nc(C(=O)NC(C)C)no1 | > 1000 nM

Challenge: Identify measured IC50 corresponding to `COc1ccccc1NCc1onc(-c2ccc(F)cc2)c1-c1nc(C(=O)NC(C)C)cs1`
Response given: > 1000 nM

Challenge: Return value of IC50 for input `Cc1nc(-c2ccc(F)cc2)c(-c2nc(C(=O)NC3CC(C)(C)NC(C)(C)C3)cs2)s1` , no commentary.
Response given: > 1000 nM

Challenge: Please give the documented IC50 of `CC(C)NC(=O)c1csc(-c2oc(CN[C@H](C)c3ccccc3)nc2-c2ccc(F)cc2)n1`
Response given: > 1000 nM

Challenge: Look up and report measured IC50 for this entry: `CC(C)NC(=O)c1csc(-c2c(-c3ccc(F)cc3)noc2CN[C@H](CO)Cc2ccccc2)n1`
Response given: > 1000 nM

Challenge: Specify IC50 for `CC(C)NC(=O)c1csc(-c2c(-c3ccc(F)cc3)noc2CN2CCN(c3ccccc3)CC2)n1` and stop.
Response given: > 1000 nM

Challenge: Write down IC50 measured for item `CC(C)NC(=O)c1csc(-c2c(-c3ccc(F)cc3)n[nH]c2C2CCN(C(=O)c3c(F)cccc3F)CC2)n1`
Response given: > 1000 nM

Challenge: For `O=C(NCc1ccccc1OC(F)(F)F)c1csc(-c2c(-c3ccc(F)cc3)n[nH]c2C2CCNCC2)n1` , write its IC50.
Response given: > 1000 nM

Challenge: For `CC(C)NC(=O)c1csc(-c2c(-c3ccc(F)cc3)n[nH]c2C2CCN(C(=O)c3ccc(F)cc3Cl)CC2)n1` , write its IC50.
Response given: > 1000 nM

----------
# ASSAYED_SYSTEM: active p38 alpha enzyme (Upstate Biotechnology) (Homo sapiens, UniProt Q16539)
# Construct: purchased Upstate Biotechnology
# ASSAY_METHOD_TEXT: p38α biochemical assay (ATP turnover, luminescent detection, Cambrex PKlight)
# EXPERIMENTAL_CONTEXT: p38α biochemical assay, Table 1 Biological Activity
PROPERTY_MEASURED: IC50

Recorded IC50, per entry:
Cc1onc(-c2ccc(F)cc2F)c1-c1ccn(C(=O)NC(C)C)n1 | ≤ 1000 nM
COc1cc(OC)cc(C(=O)N2CCN(Cc3nc(-c4ccc(F)cc4)c(-c4nc(C(=O)NC(C)C)cs4)o3)CC2)c1 | > 1000 nM
CC(C)NC(=O)c1csc(-c2oc(CNC(=O)Cc3ccc(Br)cc3)nc2-c2ccc(F)cc2)n1 | > 1000 nM
COc1cc(OC)cc(C(=O)NCc2nc(-c3ccc(F)cc3)c(-c3nc(C(=O)NC(C)C)cs3)o2)c1 | > 1000 nM

Please find the next compound below.
Challenge: Look up and report measured IC50 for this entry: `CC(C)NC(=O)c1csc(-c2oc(CN3CCN(C(=O)CC#N)CC3)nc2-c2ccc(F)cc2)n1`
Response given: ≤ 1000 nM
